- experimental target: Heat shock protein HSP90 (Homo sapiens, UniProt P07900+P08238)
- method summary: Binding affinity to Hsp90 by fluorescent polarization assay
- Assay type: protein assay
property name: IC50 (µM)
Just the number please, in µM, no unit attached.

mol	IC50 / µM
O=C(Nc1ccc(Cl)cc1)c1cn[nH]c1-c1cc(Cl)c(O)cc1O	6.9
CC(=O)Nc1ccc(NC(=O)c2c[nH]nc2-c2cc(Cl)c(O)cc2O)cc1	31.5
COc1cccc(NC(=O)c2c[nH]nc2-c2cc(Cl)c(O)cc2O)c1	11.7

## Input Identify the measured IC50 of COc1ccc(NC(=O)c2c[nH]nc2-c2cc(Cl)c(O)cc2O)cc1 for Heat shock protein HSP90 (Homo sapiens, UniProt P07900+P08238).
## Output 6

## Input Find the measured IC50: item COc1cccc(CNC(=O)c2c[nH]nc2-c2cc(Cl)c(O)cc2O)c1 , target or system Heat shock protein HSP90 (Homo sapiens, UniProt P07900+P08238).
## Output 10.7

## Input What value of IC50 on Heat shock protein HSP90 (Homo sapiens, UniProt P07900+P08238) does O=C(Nc1ccc(O)cc1)c1c[nH]nc1-c1cc(Cl)c(O)cc1O have?
## Output 14.7

## Input # get_value(readout= IC50, system= Heat shock protein HSP90 (Homo sapiens, UniProt P07900+P08238)) for O=C(NCc1ccccc1)c1cn[nH]c1-c1cc(Cl)c(O)cc1O
## Output 12.8

## Input Under Heat shock protein HSP90 (Homo sapiens, UniProt P07900+P08238): IC50 value of COc1ccc(CNC(=O)c2c[nH]nc2-c2cc(Cl)c(O)cc2O)cc1 ?
## Output 6

###

Below, each entry is listed alongside its reported IC50.
- experimental target: Heat shock protein HSP90 (Homo sapiens, UniProt P07900+P08238)
- method summary: Binding affinity to Hsp90 by fluorescent polarization assay
- Assay type: protein assay
Respond with the bare value in µM.

Below, each entry is followed by its recorded IC50 result.
mol	property name	quantitative result
O=C(NCc1ccc(F)cc1)c1cn[nH]c1-c1cc(Cl)c(O)cc1O	IC50	5.35
O=C(Nc1ccccc1)c1cn[nH]c1-c1cc(Cl)c(O)cc1O	IC50	7.1
O=C(NCc1cccc(C(F)(F)F)c1)c1cn[nH]c1-c1cc(Cl)c(O)cc1O	IC50	5.4

Then this molecule:
## Input Entry under review: O=C(NCc1ccco1)c1cn[nH]c1-c1cc(Cl)c(O)cc1O . Reported IC50?
## Output 35.6
